- Tested on: A375 Sensitive cells
- procedure summary: Viability test, trypan blue exclusion, A375 Sensitive cells
- Assay type: cell-based, human
- measurement parameters: Homo sapiens, A-375; 10 μM, 48 h; viable cells as percentage of DMSO control; read-out: Viab A375 10 μM/ 48 h
For each record, check the reported viability at 10 µM: if it is below 80% write satisfied, else write not satisfied.

Answered cases to consult:
Nc1nc(Nc2ccccc2SSc2ccccc2Nc2nc(N)nc(-c3ccc(C(F)(F)F)cc3)n2)nc(-c2ccc(C(F)(F)F)cc2)n1 [MTF 394] | satisfied
N=C(NC(=N)c1ccc2c(c1)OCO2)Nc1nc2ccccc2s1 [MTF 383] | satisfied
Nc1nc(Nc2ccccc2SSc2ccccc2Nc2nc(N)nc(-c3ccc(I)cc3)n2)nc(-c2ccc(I)cc2)n1 [MTF 328] | satisfied

Inquiry: Please indicate whether the reported viability at 10 µM of N=C(NC(=N)c1ccc(I)cc1)Nc1nc2ccccc2s1 [MTF 247] is strictly below 80%.
Reply text: not satisfied

Inquiry: API: query returns whether the compound falls strictly under 80% in viability at 10 µM. Query: Nc1nc(Nc2ccccc2O)nc(-c2cccc(Br)c2)n1 [MTF 331]
Reply text: satisfied

Inquiry: Regarding Nc1nc(Nc2ccccc2SSc2ccccc2Nc2nc(N)nc(-c3cccnc3)n2)nc(-c2cccnc2)n1 [MTF 330] , kindly confirm whether its viability at 10 µM is beneath 80%.
Reply text: satisfied

Inquiry: Is viability at 10 µM of N=C(NC(=N)c1ccncc1)Nc1nc(-c2cccc([N+](=O)[O-])c2)cs1 [MTF 261] strictly below 80%?
Reply text: not satisfied

Inquiry: Problem: For the compound N#Cc1cccc(-c2nc(N)nc(Nc3ccccc3SSc3ccccc3Nc3nc(N)nc(-c4cccc(C#N)c4)n3)n2)c1 [MTF 325] , is viability at 10 µM under 80%?
Reply text: satisfied

Inquiry: Is the reported viability at 10 µM for N=C(NC(=N)c1ccccc1)Nc1nc2ccccc2s1 [MTF 248] strictly below 80%?
Reply text: not satisfied

====

- Tested on: A375 Sensitive cells
- procedure summary: Viability test, trypan blue exclusion, A375 Sensitive cells
- Format: cell-based, human
- measurement parameters: Homo sapiens, A-375; 10 μM, 24 h; viable cells as percentage of DMSO control; read-out: Viab A375 10 μM/ 24 h
- Experimental: […] For trypan blue staining, […] of cells (melanoma and normal human cells) were aseptically transferred to a 1.5 mL clear Eppendorf tube and incubated for 3 min at room temperature with an equal volume of 0.4% trypan blue solution. Viable cells were counted and the results are expressed as the percentage of the value of control cells. […]
Here, each record is paired with measured viability at 10 µM data.
Write the value in % as a bare number.

Inquiry: Param request: viability at 10 µM | system A375 Sensitive cells | item `Nc1nc(Nc2ccccc2SSc2ccccc2Nc2nc(N)nc(-c3ccccc3F)n2)nc(-c2ccccc2F)n1`
Reply text: 22.3

Inquiry: Report the value of viability at 10 µM obtained on A375 Sensitive cells for `Cc1ccc(C(=N)NC(=N)Nc2nc3ccccc3s2)cc1` .
Reply text: 94

Inquiry: Check A375 Sensitive cells data and give viability at 10 µM for `Nc1nc(Nc2ccccc2SSc2ccccc2Nc2nc(N)nc(-c3c(Cl)cccc3Cl)n2)nc(-c2c(Cl)cccc2Cl)n1` .
Reply text: 32.3

Inquiry: Lab note: record viability at 10 µM of `COc1ccc(Nc2nc(N)nc(C(Cl)(Cl)Cl)n2)c(SSc2cc(OC)ccc2Nc2nc(N)nc(C(Cl)(Cl)Cl)n2)c1` tested on A375 Sensitive cells.
Reply text: 33.9

====

- System: A375 Sensitive cells
- procedure summary: Viability test, trypan blue exclusion, A375 Sensitive cells
- Format: cell-based, human
- measurement parameters: Homo sapiens, A-375; 10 μM, 48 h; viable cells as percentage of DMSO control; read-out: Viab A375 10 μM/ 48 h
Entries whose viability at 10 µM is below 30% take Fulfilled; entries at or above 30% take Not fulfilled.

Solved entries:
Nc1nc(Nc2ccccc2SSc2ccccc2Nc2nc(N)nc(-c3cccc(Cl)c3)n2)nc(-c2cccc(Cl)c2)n1 [MTF 322] | Fulfilled
Nc1nc(Nc2cc([N+](=O)[O-])ccc2O)nc(C(Cl)(Cl)Cl)n1 [MTF 377] | Not fulfilled
N=C(NC(=N)c1cccc(C(F)(F)F)c1)Nc1nc2ccccc2s1 [MTF 343] | Fulfilled
N#Cc1cccc(C(=N)NC(=N)Nc2nc3ccccc3s2)c1 [MTF 347] | Fulfilled

Kindly review the next molecule as well.
Inquiry: For N=C(NC(=N)c1ccc([N+](=O)[O-])cc1)Nc1nc2ccccc2s1 [MTF 398] , is the recorded viability at 10 µM below the cut-off of 30%?
Reply text: Not fulfilled

====

- Test system: A375 Sensitive cells
- procedure summary: Viability test, trypan blue exclusion, A375 Sensitive cells
- Assay type: cell-based, human
- measurement parameters: Homo sapiens, A-375; 10 μM, 48 h; viable cells as percentage of DMSO control; read-out: Viab A375 10 μM/ 48 h
Category scheme (viability at 10 µM): lower bin (below 30%), middle bin (30% to below 70%), upper bin (70% or more)

N=c1nc(C(Cl)(Cl)Cl)nc(Nc2ccccc2O)[nH]1 | lower bin
COc1ccc2nc(NC(=N)NC(=N)c3cccc(Br)c3)sc2c1 | upper bin
N=C(NC(=N)c1cccc(Cl)c1)Nc1nc(-c2ccccc2)cs1 | upper bin
Nc1nc(Nc2ccccc2SSc2ccccc2Nc2nc(N)nc(-c3ccc(Cl)cc3)n2)nc(-c2ccc(Cl)cc2)n1 | lower bin
Nc1nc(Nc2ccccc2SSc2ccccc2Nc2nc(N)nc(-c3c(Br)cncc3Br)n2)nc(-c2c(Br)cncc2Br)n1 | upper bin
COc1cccc(C(=N)NC(=N)Nc2nc3ccccc3s2)c1 | lower bin

Inquiry: Just checking, what class would you give `N=C(NC(=N)c1cccc(Br)c1)Nc1nc(-c2ccccc2)cs1` here?
Reply text: upper bin

Inquiry: Kindly state the category for this molecule: `N=C(NC(=N)c1ccccc1F)Nc1nc2ccccc2s1`
Reply text: lower bin

Inquiry: Please report the category associated with `Nc1cccc(-c2nc(N)nc(Nc3ccccc3SSc3ccccc3Nc3nc(N)nc(-c4cccc(N)c4)n3)n2)c1` , nothing else.
Reply text: middle bin

Inquiry: Which bin, given its viability at 10 µM, does `COc1ccc(C(=N)NC(=N)Nc2nc(-c3ccccc3)cs2)cc1` occupy?
Reply text: lower bin

Inquiry: Just checking, what class would you give `Cc1nc(NC(=N)NC(=N)c2cccc(Cl)c2)sc1C` here?
Reply text: middle bin

Inquiry: Sort into band: `Cc1ccc(C(=N)NC(=N)Nc2nc3ccccc3s2)cc1`
Reply text: upper bin

Inquiry: Given `N=C(NC(=N)c1cccnc1)Nc1nc(-c2cccc([N+](=O)[O-])c2)cs1` , name the class its viability at 10 µM places it in.
Reply text: upper bin

Inquiry: Into which category would you place `Nc1nc(Nc2ccccc2SSc2ccccc2Nc2nc(N)nc(-c3ccccc3)n2)nc(-c2ccccc2)n1` ?
Reply text: lower bin

Inquiry: Input `COc1ccc(C(=N)NC(=N)Nc2nc3ccccc3s2)cc1` ; output its category
Reply text: upper bin

Inquiry: Class (by measured viability at 10 µM) for `Cc1csc(NC(=N)NC(=N)c2cccc(Br)c2)n1`
Reply text: middle bin

====

- System: A375 Sensitive cells
- procedure summary: Viability test, trypan blue exclusion, A375 Sensitive cells
- Type: cell-based, human
- measurement parameters: Homo sapiens, A-375; 10 μM, 48 h; viable cells as percentage of DMSO control; read-out: Viab A375 10 μM/ 48 h
- Protocol: […] For trypan blue staining, […] of cells (melanoma and normal human cells) were aseptically transferred to a 1.5 mL clear Eppendorf tube and incubated for 3 min at room temperature with an equal volume of 0.4% trypan blue solution. Viable cells were counted and the results are expressed as the percentage of the value of control cells. […]
Binarize viability at 10 µM at 40%; below is condition met, at or above is condition not met.

The examples below pair each entry with its known result.
N=C(NC(=N)c1ccc(Cl)nc1)Nc1nc2ccccc2s1 [MTF 379] | condition not met
N=C(NC(=N)c1ccccn1)Nc1nc(-c2ccccc2)cs1 [MTF 263] | condition not met
Nc1nc(Nc2ccc(F)cc2SSc2cc(F)ccc2Nc2nc(N)nc(C(Cl)(Cl)Cl)n2)nc(C(Cl)(Cl)Cl)n1 [MTF 234] | condition met
N=C(NC(=N)c1cnccn1)Nc1nc2ccccc2s1 [MTF 345] | condition met
Nc1nc(Nc2ccccc2SSc2ccccc2Nc2nc(N)nc(-c3ccc4c(c3)OCO4)n2)nc(-c2ccc3c(c2)OCO3)n1 [MTF 449] | condition not met

Alright, here's another compound for you.
Inquiry: Answer whether the compound N=C(NC(=N)c1cccc(Br)c1)Nc1nc2ccccc2s1 [MTF 242] has viability at 10 µM strictly less than 40%
Reply text: condition met

====

- Tested on: A375 Sensitive cells
- procedure summary: Viability test, trypan blue exclusion, A375 Sensitive cells
- Type: cell-based, human
- measurement parameters: Homo sapiens, A-375; 10 μM, 48 h; viable cells as percentage of DMSO control; read-out: Viab A375 10 μM/ 48 h
measured attribute: viability at 10 µM
# output: number + unit

Example cases with answers are listed next.
Nc1nc(Nc2ccccc2SSc2ccccc2Nc2nc(N)nc(-c3cccc([N+](=O)[O-])c3)n2)nc(-c2cccc([N+](=O)[O-])c2)n1 | 16.3%
Cc1csc(NC(=N)NC(=N)c2cccc(Cl)c2)n1 | 78.7%
N=C(NC(=N)c1cccc(Cl)c1)Nc1nc(-c2cccc([N+](=O)[O-])c2)cs1 | 85.8%

Inquiry: Give the reported viability at 10 µM for this compound. `CC(=O)c1cccc(-c2nc(N)nc(Nc3ccccc3SSc3ccccc3Nc3nc(N)nc(-c4cccc(C(C)=O)c4)n3)n2)c1`
Reply text: 44.1%

Inquiry: Give me measured viability at 10 µM, please, for this compound: `Cc1csc(NC(=N)NC(=N)c2ccccc2Br)n1`
Reply text: 69.5%

Inquiry: Specify viability at 10 µM for `N=C(NC(=N)c1cccc(Br)c1)Nc1nc(-c2cccc([N+](=O)[O-])c2)cs1` and stop.
Reply text: 62%

Inquiry: Please indicate viability at 10 µM recorded for `N=C(NC(=N)c1ccc(C(F)(F)F)cc1)Nc1nc2ccccc2s1`
Reply text: 81.5%

Inquiry: Please give the documented viability at 10 µM of `N=C(NC(=N)c1cccs1)Nc1nc2ccccc2s1`
Reply text: 61.4%

Inquiry: Give the measured viability at 10 µM for `Cc1nc(NC(=N)NC(=N)c2ccc(Cl)cc2)sc1C`
Reply text: 39.3%

Inquiry: Check the records and state viability at 10 µM for `Cc1csc(NC(=N)NC(=N)c2ccccc2Cl)n1`
Reply text: 76.9%
